- test-target: Retinoic acid receptor beta (Homo sapiens) (UniProt P10826)
- Sequence (P10826 whole entry): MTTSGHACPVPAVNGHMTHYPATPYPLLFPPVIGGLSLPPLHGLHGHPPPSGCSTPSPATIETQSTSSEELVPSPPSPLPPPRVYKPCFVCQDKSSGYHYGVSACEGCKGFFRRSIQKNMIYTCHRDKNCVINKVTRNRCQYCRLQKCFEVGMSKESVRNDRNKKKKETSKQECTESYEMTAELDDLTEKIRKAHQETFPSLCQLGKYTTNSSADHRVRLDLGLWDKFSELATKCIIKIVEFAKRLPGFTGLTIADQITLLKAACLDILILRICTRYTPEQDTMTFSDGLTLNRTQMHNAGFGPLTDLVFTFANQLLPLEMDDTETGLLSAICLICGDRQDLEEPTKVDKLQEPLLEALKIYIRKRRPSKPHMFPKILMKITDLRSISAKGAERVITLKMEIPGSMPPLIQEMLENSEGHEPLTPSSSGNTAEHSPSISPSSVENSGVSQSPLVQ
- assay: Transcriptional activation in COS-1 cells expressing Retinoic Acid Receptor beta (RAR beta)
- Type: functional, cell-based
measurement-kind: EC30

compound=CC1(C)CCC(C)(C)c2cc(NC(=O)c3ccc(C(=O)O)cc3)ccc21 test_target="Retinoic acid receptor beta (Homo sapiens) (UniProt P10826)" measurement="48 nM"
compound=CC1(C)CCC(C)(C)c2cc(C(=O)Nc3ccc(C(=O)O)cc3)ccc21 test_target="Retinoic acid receptor beta (Homo sapiens) (UniProt P10826)" measurement="12 nM"
compound=CC1(C)CCC(C)(C)c2cc(-c3ccc(-c4ccc(C(=O)O)cc4)[nH]3)ccc21 test_target="Retinoic acid receptor beta (Homo sapiens) (UniProt P10826)" measurement="3.9 nM"

Pending compound:
INPUT: Lab note: need EC30 for "CC1(C)CCC(C)(C)c2nc(-c3ccc(-c4ccc(C(=O)O)cc4)[nH]3)cnc21" on Retinoic acid receptor beta (Homo sapiens) (UniProt P10826), anyone have it?
OUTPUT: 2.5 nM

// data source = ChEMBL document CHEMBL1133091
